- Tgt: IMPDH human type II (Homo sapiens, UniProt P12268)
- Assay: IMPDH activity inhibition assay (spectrophotometric, NADH formation at 340 nm)
- Format: biochemical
- Condition Label: IMPDH human type II, 15 to 50 nM enzyme, 37° C., tight-binding fit (Henderson); read-out: Ki
The compounds listed here are annotated with their Ki.

Recorded results for 6 compounds are shown here.
{"columns": ["Compound", "Ki"],
 "data": [
  ["C#Cc1cccc(NC(=O)Nc2ccc(-c3cnco3)cc2)c1", "1000 to 10000 nM"],
  ["O=C(Nc1ccc(-c2cnco2)c(Cl)c1)Nc1ccc(-c2cnco2)c(Cl)c1", "> 10000 nM"],
  ["COc1cc(NC(=O)Nc2cccc(CNC(=O)OCC3CCOC(C)(C)O3)c2)ccc1-c1cnco1 (centres unmarked)", "0.01 to 50 nM"],
  ["CC1(c2cccc(NC(=O)Nc3ccc(-c4cnco4)cc3)c2)OCCO1", "> 10000 nM"],
  ["COc1cc(NC(=O)Nc2cccc(CNC(=O)OC3CCCNC3)c2)ccc1-c1cnco1 (centres unmarked)", "0.01 to 50 nM"],
  ["CCc1cccc(NC(=O)Nc2ccc(OC)c(OC)c2)c1", "1000 to 10000 nM"]
]}

Looking for the measured Ki of `COC(=O)Nc1cccc(NC(=O)Nc2ccc(-c3cnco3)c(Cl)c2)c1` , can you help?
1000 to 10000 nM

// same read-out, input: `Cc1cccc(NC(=O)Nc2ccc(-c3cnco3)c(C)c2)c1`
51 to 1000 nM
